Recorded measurements of melting point, one per entry
TEST READOUT: melting point

[[record]]
given_smiles = "Cc1ccc(C(=O)Nc2ccc(OCCCCn3ccnc3)cc2)cc1Nc1nccc(-c2cccnc2)n1"
result = "140 to 142 °C"

[[record]]
given_smiles = "Cc1ccc(C(=O)Nc2cc(OCCCCn3ccnc3)cc(C(F)(F)F)c2)cc1Nc1nccc(-c2cccnc2)n1"
result = "180.3 to 182.5 °C"

[[record]]
given_smiles = "Cc1ccc(C(=O)Nc2ccc(Br)cc2OCCCCn2ccnc2)cc1Nc1nccc(-c2cccnc2)n1"
result = "94 to 96 °C"

[[record]]
given_smiles = "Cc1ccc(C(=O)Nc2cc(Br)cc(OCCCCn3ccnc3)c2)cc1Nc1nccc(-c2cccnc2)n1"
result = "162 to 164.4 °C"

